Data provenance is patent EP4603105A1.

Listed compounds paired with reported IC50
System: human lung cancer strain NCI-H441
Format: cell-based
*1 amine or outer side, *2 acyl side, *3 side chain or, on linkers, in order; H or OH if unused. Where a SMILES comes first, the peptide text is derived from it. Bridges are numbered along the chain shown (N, C = ends). [ ]: non-standard residue; d: D form. The star is where a group is joined. hPhe(3-Cl-4-CF3) = N[C@@H](CCc1ccc(C(F)(F)F)c(Cl)c1)C(=O)O; X50 = C=CCN([C@@H](Cc1ccc(C)cc1)C(=O)[*:2])[*:1]; NMeGly(cPent) = CN[C@H](C(=O)O)C1CCCC1; NMeD = CN[C@@H](CC(=O)O)C(=O)O; NMeL = CN[C@@H](CC(C)C)C(=O)O; Morpholide = C1CN(*)CCO1; Ac5c = NC1(C(=O)O)CCCC1; Sar = CNCC(=O)O
# number only, unit nM dropped from output

{"columns": ["compound", "target system", "test result"],
 "data": [
  ["CCC[C@H]1C(=O)N[C@@H]([C@@H](C)CC)C(=O)N(C)CC(=O)N(C)[C@H]2C/C=C\\CCN(C2=O)[C@@H](Cc2ccc(C(F)(F)F)cc2)C(=O)N(C)CC(=O)N[C@@H](CCc2ccc(C(F)(F)F)c(Cl)c2)C(=O)N2CC3(CC3)C[C@H]2C(=O)NC2(CC(C)(C)C2)C(=O)N(C)[C@@H]([C@@H](C)CC)C(=O)N(C)[C@H](C(=O)N(C)C)CC(=O)N1C", "human lung cancer strain NCI-H441", 18.7]
]}

INPUT: State its IC50: "CCO[C@@H]1C[C@H]2C(=O)NC3(CCC3)C(=O)N(C)[C@@H](C3CCCC3)C(=O)N(C)[C@H](C(=O)N3CCOCC3)CC(=O)N(C)[C@@H](CC)C(=O)N[C@@H]([C@@H](C)CC)C(=O)N(C)CC(=O)N(C)[C@H]3CCCCN(C3=O)[C@@H](Cc3ccc(C(F)(F)F)cc3)C(=O)N(C)CC(=O)N[C@@H](CCc3cc(F)c(C(F)(F)F)c(F)c3)C(=O)N2C1"
OUTPUT: 5.5

INPUT: Name the recorded IC50 of the item C=CCN1C(=O)CN(C)C(=O)CN(C)C(=O)[C@H]([C@@H](C)CC)NC(=O)[C@H](CC(C)C)N(C)C(=O)C[C@@H](C(=O)N2CCOCC2)N(C)C(=O)[C@H](C2CCCC2)N(C)C(=O)C2(CCCC2)NC(=O)[C@@H]2CCCN2C(=O)[C@H](CCc2ccc(C(F)(F)F)c(Cl)c2)NC(=O)CN(C)C(=O)[C@@H]1Cc1ccc(C)cc1 [PP0100] ([NMeL]I[Sar][Sar][X50][Sar][hPhe(3-Cl-4-CF3)]P[Ac5c][NMeGly(cPent)][NMeD]-Morpholide; lactam N-11) in your answer.
OUTPUT: 24.3

---

Target: UniProtKB P01116
Sequence (P01116 1-188 isoform P01116-2): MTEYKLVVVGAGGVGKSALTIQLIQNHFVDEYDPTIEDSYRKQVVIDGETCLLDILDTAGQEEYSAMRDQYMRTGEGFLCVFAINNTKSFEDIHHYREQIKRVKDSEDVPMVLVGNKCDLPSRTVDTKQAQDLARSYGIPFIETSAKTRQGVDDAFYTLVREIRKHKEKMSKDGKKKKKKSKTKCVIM
Assay: Binding to KRAS by surface plasmon resonance (SPR), dissociation constant KD
Conditions: Single Cycle Kinetics
pKd: −log10 of the molar value.
Please mark TRUE if the recorded pKd is equal to or greater than 10, and FALSE if it falls below.

# count of solved cases: 2
{"columns": ["compound", "target system", "group label"],
 "data": [
  ["CCC[C@H]1C(=O)N[C@@H]([C@@H](C)CC)C(=O)N(C)CC(=O)N(C)[C@H]2C/C=C\\CCN(C2=O)[C@@H](Cc2ccc(C(F)(F)F)cc2)C(=O)N(C)CC(=O)N[C@@H](CCc2ccc(C(F)(F)F)c(OC)c2)C(=O)N2CC3(CC3)C[C@H]2C(=O)NC2(CCC2)C(=O)N(C)[C@@H](CC(C)(C)C)C(=O)N(C)[C@H](C(=O)N(C)C)CC(=O)N1C [PP3412]", "UniProtKB P01116", "TRUE"],
  ["CCCO[C@@H]1C[C@H]2C(=O)NC3(CC(C)(C)C3)C(=O)N(C)[C@@H](C3CCCC3)C(=O)N(C)[C@H](C(=O)N(C)CC)CC(=O)N[C@@H](COCC)C(=O)N[C@@H]([C@@H](C)CC)C(=O)N(C3CC3)CC(=O)N(C)[C@H]3C/C=C\\CCN(C3=O)[C@@H](Cc3ccc(C)cc3)C(=O)N(C)CC(=O)N[C@@H](CCc3ccc(C(F)(F)F)c(Cl)c3)C(=O)N2C1 [PP3429]", "UniProtKB P01116", "FALSE"]
]}

INPUT: Does pKd meet or surpass 10 for CCO[C@@H]1C[C@H]2C(=O)NC3(CCC3)C(=O)N(C)[C@@H](C3CCCC3)C(=O)N(C)[C@H](C(=O)N3CCOCC3)CC(=O)N(C)[C@@H](CC(C)C)C(=O)N[C@@H]([C@@H](C)CC)C(=O)N(C)CC(=O)N(C)[C@H]3CCCCCN(C3=O)[C@@H](Cc3nccs3)C(=O)N(C)CC(=O)N[C@@H](CCc3cc(F)c(C(F)(F)F)c(F)c3)C(=O)N2C1 [PP0923] ?
OUTPUT: FALSE

INPUT: Has C=CC[C@H]1C(=O)N(C)[C@H](C(=O)N(C)C)CC(=O)N(C)[C@@H](CCC)C(=O)N[C@@H]([C@@H](C)CC)C(=O)N(C)CC(=O)N(C)[C@H]2C/C=C\CCN(C2=O)[C@@H](Cc2ccc(C(F)(F)F)cc2)C(=O)N(C)CC(=O)N[C@@H](CCc2ccc(C(F)(F)F)c(OC)c2)C(=O)N2C[C@H](OCC)C[C@H]2C(=O)N(C)C2(CCC2)C(=O)N1C [PP3330] a recorded pKd greater than or equal to 10?
OUTPUT: FALSE

INPUT: Given C#CC[C@H]1C(=O)N[C@@H]([C@@H](C)CC)C(=O)N(C)CC(=O)N(C)[C@H]2C/C=C\CCN(C2=O)[C@@H](Cc2ccc(C(F)(F)F)cc2)C(=O)N(C)CC(=O)N[C@@H](CCc2ccc(C(F)(F)F)c(Cl)c2)C(=O)N2C[C@H](OCC)C[C@H]2C(=O)N(C)C2(CCC2)C(=O)N(C)[C@@H](C2CCCC2)C(=O)N(C)[C@H](C(=O)N(C)C)CC(=O)N1C [PP3234] , state whether its pKd is at least 10.
OUTPUT: TRUE

INPUT: Tell me whether pKd is at least 10 here: CCO[C@@H]1C[C@H]2C(=O)NC3(CCCC3)C(=O)N(C)[C@@H](C3CCCC3)C(=O)N(C)[C@H](C(=O)N(C)C)CC(=O)N(C)[C@@H](CC(C)C)C(=O)N[C@@H]([C@@H](C)CC)C(=O)N(C)CC(=O)N(C)[C@H]3C/C(F)=C\CCN(C3=O)[C@@H](Cc3ccc(C)cc3)C(=O)N(C)CC(=O)N[C@@H](CCc3cc(F)c(C(F)(F)F)c(F)c3)C(=O)N2C1 [PP3511]
OUTPUT: FALSE

INPUT: Check this compound for pKd at or above 10: CCCN(C)C(=O)[C@@H]1CC(=O)N(C)[C@@H](CC(C)C)C(=O)N[C@@H]([C@@H](C)CC)C(=O)N2CCC[C@H]2C(=O)N(C)[C@H]2C/C=C\CCN(C2=O)[C@@H](Cc2ccc(C(F)(F)F)cc2)C(=O)N(C)CC(=O)N[C@@H](CCc2cc(F)c(C(F)(F)F)c(F)c2)C(=O)N2C[C@H](OCC)C[C@H]2C(=O)N[C@]2(C[C@H](OC)C2)C(=O)N(C)[C@@H](C2CCCC2)C(=O)N1C [PP3355]
OUTPUT: FALSE

INPUT: Hi, just wondering whether CCC[C@H]1C(=O)N[C@@H](C23CC(C2)C3)C(=O)N2CCC[C@H]2C(=O)N(C)[C@H]2C/C=C\CCN(C2=O)[C@@H](Cc2ccc(C(F)(F)F)cc2)C(=O)N(C)CC(=O)N[C@@H](CCc2ccc(C(F)(F)F)c(OC)c2)C(=O)N2C[C@H](OCC)C[C@H]2C(=O)N(C)C2(CCC2)C(=O)N(C)[C@@H](C2CCCC2)C(=O)N(C)[C@H](C(=O)N(C)C)CC(=O)N1C [PP3343] shows pKd of 10 or higher.
OUTPUT: FALSE
